B1: Caspase-9 (Homo sapiens), P55211 (parent)
chain: MDEADRRLLRRCRLRLVEELQVDQLWDALLSRELFRPHMIEDIQRAGSGSRRDQARQLIIDLETRGSQALPLFISCLEDTGQDMLASFLRTNRQAAKLSKPTLENLTPVVLRPEIRKPEVLRPETPRPVDIGSGGFGDVGALESLRGNADLAYILSMEPCGHCLIINNVNFCRESGLRTRTGSNIDCEKLRRRFSSLHFMVEVKGDLTAKKMVLALLELAQQDHGALDCCVVVILSHGCQASHLQFPGAVYGTDGCPVSVEKIVNIFNGTSCPSLGGKPKLFFIQACGGEQKDHGFEVASTSPEDESPGSNPEPDATPFQEGLRTFDQLDAISSLPTPSDIFVSYSTFPGFVSWRDPKSGSWYVETLDDIFEQWAHSEDLQSLLLRVANAVSVKGIYKQMPGCFNFLRKKLFFKTS

# Variants of: B1
# SETUP CONDITIONS: with apaf_human APAF1, O14727
# Sequence (O14727 whole entry): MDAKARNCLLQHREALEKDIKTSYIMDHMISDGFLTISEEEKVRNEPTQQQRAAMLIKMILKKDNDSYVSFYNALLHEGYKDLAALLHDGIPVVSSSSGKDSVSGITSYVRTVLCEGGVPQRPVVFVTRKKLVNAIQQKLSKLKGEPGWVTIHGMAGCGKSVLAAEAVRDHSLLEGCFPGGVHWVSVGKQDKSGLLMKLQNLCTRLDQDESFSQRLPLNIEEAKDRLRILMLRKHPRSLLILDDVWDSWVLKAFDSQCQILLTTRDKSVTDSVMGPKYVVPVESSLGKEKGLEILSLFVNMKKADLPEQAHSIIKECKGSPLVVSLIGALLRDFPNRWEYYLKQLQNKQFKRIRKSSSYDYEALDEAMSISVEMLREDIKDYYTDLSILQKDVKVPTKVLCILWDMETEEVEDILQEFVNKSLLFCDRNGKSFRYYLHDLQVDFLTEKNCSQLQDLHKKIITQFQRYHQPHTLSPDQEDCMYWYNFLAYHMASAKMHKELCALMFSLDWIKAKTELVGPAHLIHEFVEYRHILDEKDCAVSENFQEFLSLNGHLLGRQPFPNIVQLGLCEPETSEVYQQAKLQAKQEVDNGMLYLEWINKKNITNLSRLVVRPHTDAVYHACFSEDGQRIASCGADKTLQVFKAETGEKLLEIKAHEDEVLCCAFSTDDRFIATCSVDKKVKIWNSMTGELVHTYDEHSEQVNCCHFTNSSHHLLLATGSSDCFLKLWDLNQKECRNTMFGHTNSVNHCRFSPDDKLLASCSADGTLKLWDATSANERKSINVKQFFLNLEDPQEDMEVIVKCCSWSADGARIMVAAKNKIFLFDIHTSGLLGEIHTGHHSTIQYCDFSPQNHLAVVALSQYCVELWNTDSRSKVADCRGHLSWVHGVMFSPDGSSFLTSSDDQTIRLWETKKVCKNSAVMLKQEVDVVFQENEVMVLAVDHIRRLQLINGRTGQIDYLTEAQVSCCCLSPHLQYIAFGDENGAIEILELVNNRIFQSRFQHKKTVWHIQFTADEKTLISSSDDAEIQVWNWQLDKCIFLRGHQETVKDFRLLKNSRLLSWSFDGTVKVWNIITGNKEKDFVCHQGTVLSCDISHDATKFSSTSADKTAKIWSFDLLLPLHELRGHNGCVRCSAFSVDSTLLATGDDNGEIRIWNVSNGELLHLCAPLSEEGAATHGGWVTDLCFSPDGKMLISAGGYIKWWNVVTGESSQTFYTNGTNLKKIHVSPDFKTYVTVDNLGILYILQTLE
READOUT NAME: effect of a mutation on the interaction

>>> recorded_value("R13A")
"disrupting interaction"
>>> recorded_value("R52A")
"decreasing interaction"
>>> recorded_value("R56A")
"disrupting interaction"
>>> recorded_value("R11A")
"decreasing interaction"
